- TARGET DESC: T1, human MSLN-FL-his protein (human, UniProt Q13421 296-580)
- T1 construct: Made in HEK293E cells, purified on nickel column; it is put last here; also called human MSLN full-length protein; hMSLN-FL-his; not shown: His tag
- T1 sequence (Q13421 other isoform, or with tags, fused parts or gaps): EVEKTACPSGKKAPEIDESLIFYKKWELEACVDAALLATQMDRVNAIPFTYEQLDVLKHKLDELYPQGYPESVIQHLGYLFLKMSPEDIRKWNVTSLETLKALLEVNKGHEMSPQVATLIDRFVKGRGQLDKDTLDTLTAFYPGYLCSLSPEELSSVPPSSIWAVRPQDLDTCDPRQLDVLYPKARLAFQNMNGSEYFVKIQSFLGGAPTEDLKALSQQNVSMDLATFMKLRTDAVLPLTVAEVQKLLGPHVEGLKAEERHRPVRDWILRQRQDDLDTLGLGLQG
- ASSAY DETAILS: ELISA on coated antigen, antibody 100 nM
I'd appreciate it if you could supply OD450 values for the items below.
One number for each entry, in OD.

Some entries whose results are on file:
BINDER	READOUT UNITS	OD450
S009-F8-24.14 (antibody, human IgG1, kappa, V domains shown, Human-murine chimeric antibody, human IgG1 heavy and kappa light constant regions) VH: EFQLQQSGPELVKPGASVKISCKASGYSFTDYNMNWVKLSNGKSLEWIGVIIPNYGTSSYNQKFKGKATLTVDQSSSTAYMQLNSLTSEDSAVYYCARWDNYYGSSLDYWGQGTTLTVSS VL: DIVMTQSQKFMSTTVGDRVSITCKASQNVGTAVAWYQQKPGQSPKLLIYSASNRYTGVPDRFTGSGSGTDFILTISNMQSEDLADYFCQQYSSYPLTFGAGTKLELKR	OD	2.91
S009-F8-7.5 (antibody, human IgG1, kappa, V domains shown, Human-murine chimeric antibody, human IgG1 heavy and kappa light constant regions) VH: DVQLQESGPGLVKPSQSLSLTCSVTGYSITSGYYWNWIRQFPGNKLEWMAYIRYDGSNNYNPSLKNRISIIRDTSKNQFFLRLNSVTTEDTATYYCAKSYYGMDDWGQGISVTVSS VL: DIQMTQSPASLSASVGETVTITCRTSGDIHNYLAWYQQKQGKSPQLLVYKAKTLENGVPSRFTGSGSGTQFSLKIDSLQPEDFGTYYCQHFWTTPYTFGGGTKLEIKR	OD	3.22

Your task in this section: give OD450 for each listed record.
1. S009-F8-13.8 (antibody, human IgG1, kappa, V domains shown, Human-murine chimeric antibody, human IgG1 heavy and kappa light constant regions) VH: EFQLQQSGPELVKPGASVKISCKASGYSFTDYNMNWVKQTNGKSLEWIGIINPNYGTSSYNQKFKGKATLTVDQSSSTAYMQLNSLTSEDSAVYYCARVGRDNSGFDYWGQGTTLTVSS VL: QIVLTQSPAIMSASPGEKVTMTCSASSSVSYMYWYQQKPGSSPRLLIYDTSNLASGVPVRFSGSGSGTSYSLTISRMEAEDAATYYCQQWSSYPPTFGSGTELEIKR
2. S009-F8-18.9 (antibody, human IgG1, kappa, V domains shown, Human-murine chimeric antibody, human IgG1 heavy and kappa light constant regions) VH: EFQLQQSGPELVKPGASVKISCKASGYSFTDYNMNWVKQSNGKSLEWIGIINPNYGTTSYNQKFKGRATLTVDQSSSTAYVQLNSLTSEDSAVYYCARGGYDNEAMDYWGQGTSVTVSS VL: QIVLTQSPAIMSASPGEKVTMTCSASSSVSYMHWYQQKSGTSPKRWIYDTSKLASGVPARFSGSGSGTSYSLTISSMEAEDAATYYCQQWSSNPPTFGAGTKLELKR
3. S009-F8-12.13 (antibody, human IgG1, kappa, V domains shown, Human-murine chimeric antibody, human IgG1 heavy and kappa light constant regions) VH: QVQLQQPGAELVKPGASVKLSCKASGYTFTSYWMHWVKQRPGQGLEWIGMIHPNSGSTNYNEKFKSKATLTVDKSSSTAYMQLSSLTSEDSAVYYCARRTPIITLVGHWYFDVWGTGTTVTVSS VL: DIVMTQSHKFMSTSVGDRVSITCKASQDVGTAVAWYQQKPGQSPKLLIYWASTRHTGVPDRFTGSGSGTDFTLTISNVQSEDLADYFCQQYSSYPLTFGAGTKLELKR

Marked response:
[2.69, 2.42, 2.94]

Your task in this section: give OD450 for each listed record.
1. S009-F8-27.1 (antibody, human IgG1, kappa, V domains shown, Human-murine chimeric antibody, human IgG1 heavy and kappa light constant regions) VH: EVQLVESGGGLVKPGGSLKLSCAASGFTFSSYAMSWVRQTPEKRLEWVATISDGGNYTYYPDNVKGRFTISRDNAKNNLYLQMSHLKSEDTAMYYCAGDRGYPYAMDSWGQGTSVTVSS VL: NIMMTQSPSSLAVSAGEKVTMSCKSSQSVLYSSNQKNYLAWYQQKPGQSPKLLIYWASTRESGVPDRFTGSGSGTDFTLTISNVHAEDLAVYYCHQYLSSLTFGAGTKLELKR
2. S009-F8-15.19 (antibody, human IgG1, kappa, V domains shown, Human-murine chimeric antibody, human IgG1 heavy and kappa light constant regions) VH: EFQLQQSGPELVKPGASVKISCKASGYSFTDYNMNWVKQSNGKSLEWIGIINPYYGTTSNNQNFKGKATLTVDQSSSTAYMQLNSLTSDDSAVYYCARWLRRDAMDYWGQGTSVTVSS VL: DIVMTPSHKFMSTSVGDRVSIACKASQDVGSSVAWYQQKPGQSPKLLIYWTSTRHTGVPDRFTGSGSGTDFTLTISNVQSEDLADYFCQQYSSYPWTFGGGTKLEIKR

Marked response:
[2.5, 2.64]

This collection of values is drawn from patent US20250250357A1.
